System: 134 cancer cell lines
experiment_notes: Cell viability assay (ATPlite, 72 hours), IC50 on cancer cell line panel
condition_label: Homo sapiens, THP-1, read-out: IC50 in cell proliferation assay

| mol | test_target | inequality_sign | IC50, µM |
| --- | --- | --- | --- |
| C[C@@H](Oc1cc(-c2cnn(C3CCNCC3)c2)cnc1N)c1c(Cl)ccc(F)c1Cl | 134 cancer cell lines | = | 4.96 |
| COc1cc(N2CCC(N3CCN(C)CC3)CC2)ccc1Nc1ncc(Cl)c(Nc2ccccc2P(C)(C)=O)n1 | 134 cancer cell lines | = | 6.38 |
| C=CC(=O)N1CCC([C@@H]2CCNc3c(C(N)=O)c(-c4ccc(Oc5ccccc5)cc4)nn32)CC1 | 134 cancer cell lines | > | 31.6 |
| C[C@H]1Oc2cc(cnc2N)-c2c(nn(C)c2C#N)CN(C)C(=O)c2ccc(F)cc21 | 134 cancer cell lines | > | 31.6 |
| CNC(=O)c1ccc(-c2cnc3ncc(Cc4ccc5ncccc5c4)n3n2)cc1F | 134 cancer cell lines | > | 31.6 |
| Cn1cc(-c2cc3c(N4CCN(c5ncc([C@@](C)(N)c6ccc(F)cc6)cn5)CC4)ncnn3c2)cn1 | 134 cancer cell lines | = | 5.42 |

###

Test system: 134 cancer cell lines
experiment_notes: Cell viability assay (ATPlite, 72 hours), IC50 on cancer cell line panel
condition_label: Homo sapiens, NCI-H1975, read-out: IC50 in cell proliferation assay, NCI-H1975 cell line (EGFR p.L858R + p.T790M)
# label = Criterion met if IC50 < 1000 nM else Criterion not met

| molecule | discrete_label |
| --- | --- |
| CCN1CCN(c2ccc(Nc3cc(N(C)C(=O)Nc4c(Cl)c(OC)cc(OC)c4Cl)ncn3)cc2)CC1 [infigratinib] | Criterion not met |
| Cc1cc(Nc2ncnc3ccc(NC4=NC(C)(C)CO4)cc23)ccc1Oc1ccn2ncnc2c1 [tucatinib] | Criterion not met |
| Cc1nc(NC(=O)N2CCC[C@H]2C(N)=O)sc1-c1ccnc(C(C)(C)C(F)(F)F)c1 [alpelisib] | Criterion not met |
| CC(=O)Nc1cccc(-n2c(=O)n(C3CC3)c(=O)c3c(Nc4ccc(I)cc4F)n(C)c(=O)c(C)c32)c1 [trametinib] | Criterion met |
| CO[C@]1(C(=O)N[C@@H](C)c2ccc(-n3cc(F)cn3)nc2)CC[C@H](c2nc(C)cc(Nc3cc(C)[nH]n3)n2)CC1 [pralsetinib] | Criterion not met |
| Cn1cnc2c(F)c(Nc3ccc(Br)cc3Cl)c(C(=O)NOCCO)cc21 [selumetinib] | Criterion not met |

###

Let's look at some molecules and their measured pIC50.
Test system: 134 cancer cell lines
experiment_notes: Cell viability assay (ATPlite, 72 hours), IC50 on cancer cell line panel
condition_label: Homo sapiens, HT-1080, read-out: IC50 in cell proliferation assay, HT-1080 cell line
pIC50: −log10 of the molar value.
measure_name: pIC50

| molecule | inequality_sign | experimental_value |
| --- | --- | --- |
| CC(C)(C)c1nc(-c2cccc(NS(=O)(=O)c3c(F)cccc3F)c2F)c(-c2ccnc(N)n2)s1 [dabrafenib] | = | 6.01 |
| CN1CCN(c2ccc(C(=O)Nc3n[nH]c4ccc(Cc5cc(F)cc(F)c5)cc34)c(NC3CCOCC3)c2)CC1 [entrectinib] | = | 5.13 |
| O=C(Nc1cnn2ccc(N3CCC[C@@H]3c3cc(F)ccc3F)nc12)N1CC[C@H](O)C1 [larotrectinib] | < | 4.50 |
| COc1cc2ncnc(Nc3ccc(F)c(Cl)c3)c2cc1NC(=O)/C=C/CN1CCCCC1 [dacomitinib] | = | 5.55 |
| COC(=O)N[C@@H](C)CNc1nccc(-c2cn(C(C)C)nc2-c2cc(Cl)cc(NS(C)(=O)=O)c2F)n1 [encorafenib] | = | 6.42 |

###

Let's look at some compounds and their measured inhibition at 1 µM.
test_target: panel of 255 wild-type kinases (Homo sapiens, UniProt P07949)
Sequence (P07949 29-1114): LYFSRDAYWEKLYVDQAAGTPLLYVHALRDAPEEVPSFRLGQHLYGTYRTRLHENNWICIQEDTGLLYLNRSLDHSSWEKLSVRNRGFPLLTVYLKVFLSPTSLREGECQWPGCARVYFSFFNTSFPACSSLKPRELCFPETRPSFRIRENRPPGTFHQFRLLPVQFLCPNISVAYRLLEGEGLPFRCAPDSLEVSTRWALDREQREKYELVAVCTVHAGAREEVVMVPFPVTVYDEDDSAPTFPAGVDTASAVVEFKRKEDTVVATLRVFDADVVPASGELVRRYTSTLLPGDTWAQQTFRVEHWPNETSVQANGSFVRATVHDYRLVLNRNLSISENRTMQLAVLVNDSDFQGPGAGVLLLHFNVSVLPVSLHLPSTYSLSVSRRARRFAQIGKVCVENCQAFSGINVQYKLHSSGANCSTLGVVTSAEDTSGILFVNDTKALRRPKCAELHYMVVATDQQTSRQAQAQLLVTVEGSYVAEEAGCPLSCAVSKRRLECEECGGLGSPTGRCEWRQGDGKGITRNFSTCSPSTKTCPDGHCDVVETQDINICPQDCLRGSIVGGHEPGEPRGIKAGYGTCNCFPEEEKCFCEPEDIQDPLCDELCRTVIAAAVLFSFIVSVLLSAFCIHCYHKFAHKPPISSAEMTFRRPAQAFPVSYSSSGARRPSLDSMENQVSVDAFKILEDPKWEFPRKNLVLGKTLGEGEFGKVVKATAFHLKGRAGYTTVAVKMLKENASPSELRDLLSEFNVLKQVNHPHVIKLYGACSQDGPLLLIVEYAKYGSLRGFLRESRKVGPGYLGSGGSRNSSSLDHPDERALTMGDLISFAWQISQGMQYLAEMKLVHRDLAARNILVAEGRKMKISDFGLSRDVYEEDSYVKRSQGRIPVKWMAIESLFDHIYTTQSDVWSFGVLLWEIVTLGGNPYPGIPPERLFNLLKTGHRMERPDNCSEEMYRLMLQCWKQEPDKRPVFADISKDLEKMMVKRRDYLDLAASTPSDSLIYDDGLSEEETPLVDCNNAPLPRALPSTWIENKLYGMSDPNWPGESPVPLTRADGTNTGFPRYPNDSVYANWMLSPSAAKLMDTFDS
experiment_notes: Kinase panel profiling at 1 µmol/L (MSA or IMAP), percentage inhibition
Assay type: biochemical
condition_label: kinase RET; 1 µmol/L single concentration; read-out: %-inhibition at 1 µmol/L, RET

| mol | unit_abbrev | inhibition at 1 µM |
| --- | --- | --- |
| C[C@H](Nc1ncnc2nc[nH]c12)c1cc2cccc(Cl)c2c(=O)n1-c1ccccc1 | % | 8 |
| O=C(Nc1cnn2ccc(N3CCC[C@@H]3c3cc(F)ccc3F)nc12)N1CC[C@H](O)C1 | % | 1.71 |
| C[C@H]1Oc2cc(cnc2N)-c2c(nn(C)c2C#N)CN(C)C(=O)c2ccc(F)cc21 | % | 10 |
| Cn1cnc2c(F)c(Nc3ccc(Br)cc3Cl)c(C(=O)NOCCO)cc21 | % | 38 |
| FC(F)(F)c1ccc(CNc2ccc(Cc3c[nH]c4ncc(Cl)cc34)cn2)cn1 | % | 88 |
| Cc1nc(NC(=O)N2CCC[C@H]2C(N)=O)sc1-c1ccnc(C(C)(C)C(F)(F)F)c1 | % | 1.62 |
| Cn1cnc2c(F)c(Nc3ccc(Br)cc3F)c(C(=O)NOCCO)cc21 | % | -6 |
| Cn1cc(-c2cc3c(N4CCN(c5ncc([C@@](C)(N)c6ccc(F)cc6)cn5)CC4)ncnn3c2)cn1 | % | 96 |

###

test_target: panel of 255 wild-type kinases (Homo sapiens)
experiment_notes: Kinase panel profiling at 1 µmol/L (MSA or IMAP), percentage inhibition
Format: biochemical
condition_label: kinase TSSK2; 1 µmol/L single concentration; read-out: %-inhibition at 1 µmol/L, TSSK2
Let's look at some molecules and their measured inhibition at 1 µM.
measure_name: inhibition at 1 µM (%)

| molecule | measure_name | experimental_value |
| --- | --- | --- |
| Cn1cnc2c(F)c(Nc3ccc(Br)cc3Cl)c(C(=O)NOCCO)cc21 [selumetinib] | inhibition at 1 µM | -4.25 |
| CO[C@]1(C(=O)N[C@@H](C)c2ccc(-n3cc(F)cn3)nc2)CC[C@H](c2nc(C)cc(Nc3cc(C)[nH]n3)n2)CC1 [pralsetinib] | inhibition at 1 µM | 8 |
| CCN1CCN(c2ccc(Nc3cc(N(C)C(=O)Nc4c(Cl)c(OC)cc(OC)c4Cl)ncn3)cc2)CC1 [infigratinib] | inhibition at 1 µM | -3.74 |
| COc1ccc(CN2C3CC2CN(c2ccc(-c4cc(OCC(C)(C)O)cn5ncc(C#N)c45)cn2)C3)cn1 [selpercatinib] | inhibition at 1 µM | -0.889 |
| C[C@H]1Oc2cc(cnc2N)-c2c(nn(C)c2C#N)CN(C)C(=O)c2ccc(F)cc21 [lorlatinib] | inhibition at 1 µM | 56 |
| CCN1C(=O)N(c2c(F)c(OC)cc(OC)c2F)Cc2cnc3[nH]c(CN4CCOCC4)cc3c21 [pemigatinib] | inhibition at 1 µM | -3.21 |
| O=C(Nc1cnn2ccc(N3CCC[C@@H]3c3cc(F)ccc3F)nc12)N1CC[C@H](O)C1 [larotrectinib] | inhibition at 1 µM | -0.476 |

###

Let's look at some compounds and their measured inhibition at 1 µM.
test_target: panel of 255 wild-type kinases (Homo sapiens, UniProt Q8NE63)
Sequence (Q8NE63 whole entry): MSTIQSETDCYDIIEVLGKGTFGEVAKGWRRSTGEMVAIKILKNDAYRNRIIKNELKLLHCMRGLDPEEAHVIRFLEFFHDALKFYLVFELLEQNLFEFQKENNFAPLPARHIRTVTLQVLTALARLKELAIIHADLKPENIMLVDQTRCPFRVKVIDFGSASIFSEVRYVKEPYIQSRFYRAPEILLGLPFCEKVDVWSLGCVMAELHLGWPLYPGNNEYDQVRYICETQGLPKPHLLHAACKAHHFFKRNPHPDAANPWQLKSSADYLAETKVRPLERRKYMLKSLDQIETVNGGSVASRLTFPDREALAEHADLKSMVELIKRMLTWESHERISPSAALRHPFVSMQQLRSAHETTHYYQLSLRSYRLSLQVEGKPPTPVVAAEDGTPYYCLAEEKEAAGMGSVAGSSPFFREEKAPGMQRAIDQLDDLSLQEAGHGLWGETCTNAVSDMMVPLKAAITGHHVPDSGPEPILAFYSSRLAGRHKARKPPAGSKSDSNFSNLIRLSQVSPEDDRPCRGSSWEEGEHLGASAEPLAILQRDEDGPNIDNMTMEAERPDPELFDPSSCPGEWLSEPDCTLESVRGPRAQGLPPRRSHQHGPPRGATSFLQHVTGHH
experiment_notes: Kinase panel profiling at 1 µmol/L (MSA or IMAP), percentage inhibition
Assay type: biochemical
condition_label: kinase HIPK4; 1 µmol/L single concentration; read-out: %-inhibition at 1 µmol/L, HIPK4

| compound | inhibition at 1 µM, % |
| --- | --- |
| C=CC(=O)N1CCC([C@@H]2CCNc3c(C(N)=O)c(-c4ccc(Oc5ccccc5)cc4)nn32)CC1 [zanubrutinib] | 7 |
| Cn1cc(-c2cc3c(N4CCN(c5ncc([C@@](C)(N)c6ccc(F)cc6)cn5)CC4)ncnn3c2)cn1 [avapritinib] | 46 |
| CO[C@]1(C(=O)N[C@@H](C)c2ccc(-n3cc(F)cn3)nc2)CC[C@H](c2nc(C)cc(Nc3cc(C)[nH]n3)n2)CC1 [pralsetinib] | 44 |
| C[C@H](Nc1ncnc2nc[nH]c12)c1cc2cccc(Cl)c2c(=O)n1-c1ccccc1 [duvelisib] | 5 |
| Cc1nc(NC(=O)N2CCC[C@H]2C(N)=O)sc1-c1ccnc(C(C)(C)C(F)(F)F)c1 [alpelisib] | 64 |
| CCN1CCN(c2ccc(Nc3cc(N(C)C(=O)Nc4c(Cl)c(OC)cc(OC)c4Cl)ncn3)cc2)CC1 [infigratinib] | 6 |
| COc1ccc(CN2C3CC2CN(c2ccc(-c4cc(OCC(C)(C)O)cn5ncc(C#N)c45)cn2)C3)cn1 [selpercatinib] | 21 |

###

Let's look at some molecules and their measured IC50.
Tested on: 134 cancer cell lines
experiment_notes: Cell viability assay (ATPlite, 72 hours), IC50 on cancer cell line panel
condition_label: Homo sapiens, SNU-C2B, read-out: IC50 in cell proliferation assay
measure_name: IC50

| mol | measure_name | experimental_value |
| --- | --- | --- |
| CCN1C(=O)N(c2c(F)c(OC)cc(OC)c2F)Cc2cnc3[nH]c(CN4CCOCC4)cc3c21 | IC50 | > 31.6 µM |
| C[C@H]1Oc2cc(cnc2N)-c2c(nn(C)c2C#N)CN(C)C(=O)c2ccc(F)cc21 | IC50 | > 31.6 µM |
